Target: 3',5'-cyclic-AMP phosphodiesterase 4B (Homo sapiens)
Test: qHTS Assay for Inhibitors of PDE-IV (AID 607)
Conditions: HEK293 ACTOne CNG channel cells, membrane potential fluorescence; series mostly up to 22.9 µM
Results filed as inconclusive are left out. The source made the active and inactive calls. Calls follow the shape of the dose curve; as a rule, active = well fitted activation curve with a large enough effect in the main read-out, with a control signal flat (not every such curve was filed as active); inconclusive = small, poorly fitted or top-dose-only effect, or effect the other way, or a change in a side signal; inactive = flat fitted curve, though single readings scatter. Non-standard residues stand in square brackets, D forms with d. Residues, ends and D or L forms follow the SMILES beside them.
Can you answer with just one of these options? active, inactive

Query string: Each compound tested received a call. Report the one for "COc1ccccc1N1CCN(C[C@@H](O)COc2cccc3ccccc23)CC1" .
Result string: inactive

Query string: Each compound tested received a call. Report the one for "CC1(C)CO[C@H](CC(=O)O)CN1" .
Result string: inactive

Query string: Each compound tested received a call. Report the one for "O=C(OCCN1CCCCC1)c1c[nH]c2ccccc12" .
Result string: inactive

Query string: Each compound tested received a call. Report the one for "N[C@@H](C(=O)O)c1ccc(P(=O)(O)O)cc1" .
Result string: inactive

Query string: Each compound tested received a call. Report the one for "OC[C@H]1NC[C@@H](O)[C@@H](O)[C@H]1O" .
Result string: inactive

Query string: Each compound tested received a call. Report the one for "NS(=O)(=O)c1cc2c(cc1Cl)N[C@@H]([C@@H]1C[C@@H]3C=C[C@H]1C3)NS2(=O)=O" .
Result string: inactive

Query string: Each compound tested received a call. Report the one for "N#C[C@H](Cc1ccc(O)cc1)c1ccc(O)cc1" .
Result string: inactive

Query string: Each compound tested received a call. Report the one for CSCC[C@H](C=O)NC(=O)[C@H](CC(C)C)NC(=O)[C@H](CC(C)C)NC(C)=O (Ac-Leu-Leu-[dM]-aldehyde) .
Result string: inactive

Query string: Each compound tested received a call. Report the one for "O=C(O)Cc1cc2ccccc2nc1C(=O)O" .
Result string: inactive

Query string: Each compound tested received a call. Report the one for C[C@@]12CC[C@@H]3c4ccc(O)cc4C[C@H](CCCCCCCCCS(=O)CCCC(F)(F)C(F)(F)F)[C@H]3[C@@H]1CC[C@@H]2O (some centres not stated) .
Result string: inactive

Query string: Each compound tested received a call. Report the one for "N[C@@]1(C(=O)O)CN[C@H](C(=O)O)C1" .
Result string: inactive

Query string: Each compound tested received a call. Report the one for "CCN(Cc1ccncc1)C(=O)[C@@H](CO)c1ccccc1" .
Result string: inactive

Query string: Each compound tested received a call. Report the one for "N[C@@H](Cc1cc(CP(=O)(O)O)cc(-c2ccccc2Cl)c1)C(=O)O" .
Result string: inactive

Query string: Each compound tested received a call. Report the one for "O=C(NCCNC[C@@H](O)COc1ccc(O)cc1)N1CCOCC1" .
Result string: inactive

Query string: Each compound tested received a call. Report the one for "CN1CCc2cc3c(cc2[C@@H]1[C@@H]1C(=O)Oc2c1ccc1c2OCO1)OCO3" .
Result string: inactive

Query string: Each compound tested received a call. Report the one for "CCCn1c(=O)c2[nH]c(-c3ccccc3)nc2n(CCC)c1=O" .
Result string: active

Query string: Each compound tested received a call. Report the one for "C[C@H](N=C(NC#N)Nc1ccncc1)C(C)(C)C" .
Result string: inactive

====

Test: Panc-1005 Cancer Cell Toxicity qHTS against the NCATS CANVASS Library (AID 1347349); also: nearly all actives have a fitted effect of over 60% in size; also: potency is read from the fitted curve at half-maximal effect
Conditions: Panc-1005 viability, CellTiter-Glo luminescence, 72 h; series mostly up to 38.3 µM
Inconclusive results are not listed. The source made the active and inactive calls. The call rests on the fitted dose curve; in most records, active means well fitted cell-killing curve with a large enough effect; inconclusive means small, poorly fitted or top-dose-only effect; inactive means flat fitted curve, though single readings scatter. Peptide text beside a SMILES is read from it. * marks the point of attachment. Octanoyl = CCCCCCCC(=O)*
quantity-kind: Potency

Completed entries (count: 5):
- compound: "C[C@@H]1O[C@@H](O[C@@H]2[C@@H](O)[C@H](O[C@@H]3[C@@H](O)[C@@H](O)C(O[C@H]4[C@H](OC(=O)[C@]56CCC(C)(C)C[C@H]5C5=CCC7[C@@]8(C)C[C@H](O)[C@H](O[C@@H]9C[C@H](CO)[C@@H](O)[C@H](O)[C@H]9O)[C@@](C)(CO)C8[C@H](O)C[C@@]7(C)[C@]5(C)CC6)OC[C@H](O)[C@@H]4O)O[C@H]3C)OC[C@H]2O)[C@H](O)[C@H](O)[C@H]1O (stereo partly specified)"
  Potency: "inactive"
- compound: "CCCCCCCCC[C@@H]1C[C@@H]2CC[C@H]3[C@@H](C(=O)OCCCCN=C(N)N)[C@@H](C)N=C(N1)N23"
  Potency: "14.7 µM (active)"
- compound: "CCCCCCCC(=O)N[C@@H](CC(C)C)C(=O)N[C@H](C=O)CCC(=O)O (Octanoyl-Leu-Glu-aldehyde)"
  Potency: "inactive"
- compound: "C=C[C@@]1(C)CC[C@@H]([C@H](C)C(=O)/C=C/C(C)C)O1"
  Potency: "inactive"
- compound: "C/C1=C/[C@@H](C)[C@H](O)C/C=C/CC/C=C/C(=O)O[C@@H]1[C@H](C)C(=O)/C=C/CC1CC(=O)NC(=O)C1"
  Potency: "11.9 µM (active)"

Moving on to the next compound.
Query string: Look up Potency for this compound: "CN1CCc2cc3c(c4c2[C@H]1[C@@H](O)c1ccccc1-4)OCO3"
Result string: 16.8 µM (active)

====

Assay: Primary qHTS for inhibitors of nuclear receptor binding SET domain protein 2 (NSD2) in an RCH-ACV wild type WT cells (2C) (AID 1645877); also: nearly all actives have a fitted effect of over 70% in size
Conditions: RCH-ACV (leukaemia line) NSD2 WT (2C) viability, CellTiter-Glo, 72 h; series mostly up to 44.9 µM
Records with an inconclusive call do not appear. Activity calls are given as the source filed them. The call rests on the fitted dose curve; in most records, active means well fitted inhibition curve with a large enough effect; inconclusive means small, poorly fitted or top-dose-only effect; inactive means no such curve, though single readings can be large or run the other way.
Can you answer with just one of these options? 1 (yes) for active, 0 (no) for inactive

Query string: Each molecule tested received a call. Report the one for "CC(C)C(=O)OC[C@H]1O[C@@H](n2ccc(N)nc2=O)[C@](C)(F)[C@@H]1OC(=O)C(C)C" .
Result string: 0 (no)

Query string: Each molecule tested received a call. Report the one for CNc1nc(-c2ccc3c(N)n[nH]c3c2)cc(N2CC(C(=O)NC3CCCCC3)CCC2C)n1 (stereo not drawn) .
Result string: 1 (yes)

Query string: Each molecule tested received a call. Report the one for Cc1cc(Nc2nc(NC(C)c3ccc(F)cc3)c(C#N)cc2F)n[nH]1 (stereo not drawn) .
Result string: 1 (yes)

====

Experiment: qHTS Assay for Lipid Storage Modulators (AID 1519)
Settings: Drosophila S3 cells, BODIPY lipid droplet/cell ratio, laser cytometry; measured here: cell count channel max response; cells loaded with oleic acid
Results filed as inconclusive are left out.
I'd appreciate it if you could supply max response values for the items below.
# output: bare number, implied unit %

Query string: Look up max response for this compound: "N[C@H](C(=O)O)c1ccc(C(=O)O)cc1"
Result string: -4.05

Query string: Look up max response for this compound: "O=C(O)COc1ccc(OCCNC[C@@H](O)COc2ccccc2)cc1"
Result string: 8.13

Query string: Look up max response for this compound: "N[C@H](Cc1cnc[nH]1)C(=O)O"
Result string: -9.8

Query string: Look up max response for this compound: "CCNCCCNCCCCNCCCNCC"
Result string: 15.1

Query string: Look up max response for this compound: "CC(N)=NCCCC[C@H](N)C(=O)O"
Result string: -8.18

Query string: Look up max response for this compound: "N[C@@H]1CCN(O)C1=O"
Result string: 18.8

Query string: Look up max response for this compound: "N[C@@]1(C(=O)O)CN[C@H](C(=O)O)C1"
Result string: 0.388

Query string: Look up max response for this compound: "COc1ccc2c3c1O[C@H]1C[C@H](O)C=C[C@@]31CCN(C)C2"
Result string: 9.55

Query string: Look up max response for this compound: "O=C(Nc1ccc(C(=O)Nc2ccc(C(=O)Nc3ccc(S(=O)(=O)O)c4cc(S(=O)(=O)O)cc(S(=O)(=O)O)c34)cc2)cc1)Nc1ccc(C(=O)Nc2ccc(C(=O)Nc3ccc(S(=O)(=O)O)c4cc(S(=O)(=O)O)cc(S(=O)(=O)O)c34)cc2)cc1"
Result string: -4.46

Query string: Look up max response for this compound: "N[C@]1(C(=O)O)CCc2cc(C(=O)O)ccc21"
Result string: 14.2

Query string: Look up max response for this compound: "CCNC(=O)[C@H]1O[C@H](n2cnc3c(N)nc(NCCc4ccc(CCC(=O)O)cc4)nc32)[C@@H](O)[C@@H]1O"
Result string: -14.7

Query string: Look up max response for this compound: "N[C@](CC1c2ccccc2Oc2ccccc21)(C(=O)O)[C@@H]1C[C@@H]1C(=O)O"
Result string: 12.4

Query string: Look up max response for this compound: "N#C/C(=C\c1ccc(O)c(O)c1)C(=O)Nc1ccccc1"
Result string: -56.6

Query string: Look up max response for this compound: "CC[C@@H]1O[C@]2(C=C[C@@H]1C)C[C@H]1C[C@H](CC=C(C)[C@@H](O[C@@H]3C[C@H](OC)[C@H](O[C@@H]4C[C@H](OC)[C@H](O)[C@H](C)O4)[C@H](C)O3)[C@@H](C)C=CC=C3CO[C@@H]4[C@@H](O)C(C)=C[C@@H](C(=O)O1)[C@]34O)O2"
Result string: -4.3

Query string: Look up max response for this compound: "Cc1nc(N=Nc2cc(S(=O)(=O)O)ccc2S(=O)(=O)O)c(COP(=O)(O)O)c(C=O)c1O"
Result string: -2.46

Query string: Look up max response for this compound: "C[C@@H](CC(=O)O)[C@@H](N)C(=O)O"
Result string: -10.3

Query string: Look up max response for this compound: "Cc1ccccc1N=C(N)Nc1ccccc1C"
Result string: 2.46

Query string: Look up max response for this compound: "O=C(O)c1c2ccccc2cc2ccccc12"
Result string: 24.6

Query string: Look up max response for this compound: "CCCN(CCC)C[C@@H]1CCCCN1CCNC(=O)N1c2ccccc2C(=O)Nc2cccnc21"
Result string: -8.98

Query string: Look up max response for this compound: "COc1cc(-c2ccc(N=Nc3ccc4c(S(=O)(=O)O)cc(S(=O)(=O)O)c(N)c4c3O)c(OC)c2)ccc1N=Nc1ccc2c(S(=O)(=O)O)cc(S(=O)(=O)O)c(N)c2c1O"
Result string: 1.95

Query string: Look up max response for this compound: "Fc1ccc(C(c2ccc(F)cc2)N2CCN(C/C=C\c3ccccc3)CC2)cc1"
Result string: -13.5

Query string: Look up max response for this compound: "CCCCCC(=O)O[C@H](CC(=O)O)C[N+](C)(C)C"
Result string: 0.652

Query string: Look up max response for this compound: "CC(N)=NCCC[C@H](N)C(=O)O"
Result string: -7.21

Query string: Look up max response for this compound: "N#Cc1ccccc1OC[C@H](O)CNCCNC(=O)Nc1ccccc1"
Result string: 6.59

Query string: Look up max response for this compound: "C1=C(CN2CCOCC2)COc2c1cccc2OC[C@@H]1CNCCO1"
Result string: 5.43

Query string: Look up max response for this compound: CN(Cc1cnc2nc(N)nc(N)c2n1)c1ccc(C(=O)NC(CCC(=O)O)C(=O)O)cc1 (stereo not drawn)
Result string: 7.14

Query string: Look up max response for this compound: "C[C@](N)(C(=O)O)c1ccc(-c2nn[nH]n2)cc1"
Result string: 7.75

Query string: Look up max response for this compound: "Nc1ncnc2c1ncn2[C@@H]1O[C@H](COP(=O)(O)OP(=O)(O)O)[C@@H](O)[C@H]1O"
Result string: -2.57

Query string: Look up max response for this compound: "CC(C)(C)c1ccc(S(=O)(=O)/C=C\C#N)cc1"
Result string: 5.78

Query string: Look up max response for this compound: "O[C@@H](c1ccccc1)C1CCN(CCc2ccccc2)CC1"
Result string: 5.72

Query string: Look up max response for this compound: "C[C@H](C[C@H](N)C(=O)O)C(=O)O"
Result string: -13.2

Query string: Look up max response for this compound: "Nc1nc(Nc2ccccc2)nc2c1ncn2[C@@H]1O[C@@H](CO)[C@H](O)[C@H]1O"
Result string: -2.49

Query string: Look up max response for this compound: "C[C@H](NC[C@H](O)CP(=O)(O)Cc1ccccc1)c1ccc(Cl)c(Cl)c1"
Result string: 0.952
